Experiment: Pharmacokinetics in male Sprague-Dawley rats
Assay type: in vivo
Details: male, Sprague-Dawley, plasma; rat, iv, 1 mg/kg; read-out: Cmax/C0
READOUT: Cmax (ng/mL)
Quick reminder: number only, in ng/mL, skip the unit.

Entry under review: `CCOc1cnc2[nH]cc(C(=O)c3ccc(Oc4ccccc4F)cc3F)c2c1N[C@@H]1CC[C@@H](CO)OC1` . Reported Cmax?
4360

---

Test: Pharmacokinetics in male Sprague-Dawley rats
Assay type: in vivo
Details: male, Sprague-Dawley, plasma; rat, po, 5 mg/kg
READOUT: half-life
Could you write the number and then its unit?

Fill blank: measured half-life of the molecule `CCOc1cnc2[nH]cc(C(=O)c3ccc(Oc4ccccc4F)cc3F)c2c1N[C@@H]1CC[C@@H](CO)OC1` is ____.
2.74 h

---

Assay: Pharmacokinetics in male Sprague-Dawley rats
Assay type: in vivo
Conditions: male, Sprague-Dawley, plasma; rat, iv, 2 mg/kg
READOUT: clearance

Query: clearance; subject: `COc1cnc2[nH]cc(C(=O)c3ccc(Oc4ccccc4F)cc3F)c2c1N[C@@H]1CC[C@@H](CO)OC1`
3.33 mL/min/kg

---

Assay: Pharmacokinetics in male Sprague-Dawley rats
Format: in vivo
Conditions: male, Sprague-Dawley, plasma; rat, iv, 2 mg/kg; read-out: Cmax/C0
READOUT: Cmax (ng/mL)
Just the number please, in ng/mL, no unit attached.

Consider the compound shown here: COc1cnc2[nH]cc(C(=O)c3ccc(Oc4ccccc4F)cc3F)c2c1N[C@@H]1CC[C@@H](CO)OC1 [Example 75] What is its recorded Cmax?
6350

---

Assay: Pharmacokinetics in male Sprague-Dawley rats
Type: in vivo
Details: male, Sprague-Dawley, plasma; rat, iv, 2 mg/kg
READOUT: AUC(0-inf) (ng·h/mL)
Form entry: value (ng·h/mL) — number only.

Could you share which AUC(0-inf) value was measured for `COc1cnc2[nH]cc(C(=O)c3ccc(Oc4ccccc4F)cc3F)c2c1N[C@@H]1CC[C@@H](CO)OC1` ?
10200

---

Test: Pharmacokinetics in male Sprague-Dawley rats
Type: in vivo
Conditions: male, Sprague-Dawley, plasma; rat, po, 10 mg/kg
READOUT: AUC(0-inf) (ng·h/mL)
The figure you give is taken to be in ng·h/mL; do not add the unit.

Requested field: AUC(0-inf). Item: `COc1cnc2[nH]cc(C(=O)c3ccc(Oc4ccccc4F)cc3F)c2c1N[C@@H]1CC[C@@H](CO)OC1`
29000

---

Test: Pharmacokinetics in male Sprague-Dawley rats
Format: in vivo
Settings: male, Sprague-Dawley, plasma; rat, po, 10 mg/kg; read-out: MRT0-t
READOUT: MRT last (h)
I only need the number, in h, no unit after it.

Which MRT last is reported for this compound? `COc1cnc2[nH]cc(C(=O)c3ccc(Oc4ccccc4F)cc3F)c2c1N[C@@H]1CC[C@@H](CO)OC1`
5.58

---

Test: Pharmacokinetics in male Sprague-Dawley rats
Format: in vivo
Settings: male, Sprague-Dawley, plasma; rat, po, 10 mg/kg
READOUT: AUC(0-t) (ng·h/mL)
Please give a number only; it is taken to be in ng·h/mL.

Entry under review: `COc1cnc2[nH]cc(C(=O)c3ccc(Oc4ccccc4F)cc3F)c2c1N[C@@H]1CC[C@@H](CO)OC1` . Reported AUC(0-t)?
28900

---

Test: Pharmacokinetics in male Sprague-Dawley rats
Assay type: in vivo
Conditions: male, Sprague-Dawley, plasma; rat, po, 5 mg/kg; read-out: Cmax/C0
READOUT: Cmax
Write the numeric value and follow it with the unit.

So what does the record say about Cmax for `CCOc1cnc2[nH]cc(C(=O)c3ccc(Oc4ccccc4F)cc3F)c2c1N[C@@H]1CC[C@@H](CO)OC1` ?
1680 ng/mL

---

Assay: Pharmacokinetics in male Sprague-Dawley rats
Type: in vivo
Conditions: male, Sprague-Dawley, plasma; rat, po, 5 mg/kg
READOUT: AUC(0-inf) (ng·h/mL)
Record the value in ng·h/mL, omitting the unit from your answer.

Looking for the measured AUC(0-inf) of `CCOc1cnc2[nH]cc(C(=O)c3ccc(Oc4ccccc4F)cc3F)c2c1N[C@@H]1CC[C@@H](CO)OC1` , can you help?
10100

---

Test system: DOHH2 cells
Assay: Cell proliferation assay in DOHH2 cells (MTS)
Assay type: cell-based
Settings: 120 h
READOUT: pIC50
As a rule, pIC50 stands for the negative log10 of the concentration, concentration in M.

{"COMPOUND": "CCOc1cnc2[nH]cc(C(=O)c3ccc(Oc4ccccc4)cc3F)c2c1N[C@@]12CO[C@H](CO)C1C2 (single isomer, unassigned) [Example 181]", "VALUE_MEASURED": 9.00}
{"COMPOUND": "CCOc1cnc2[nH]cc(C(=O)c3ccc(Oc4ccccc4F)cc3F)c2c1N[C@@]12CO[C@H](CO)C1C2 (single isomer, unassigned) [Example 172]", "VALUE_MEASURED": 9.00}
{"COMPOUND": "CCOc1cnc2[nH]cc(C(=O)c3ccc(Oc4ccccc4F)cc3C)c2c1N[C@@]12CO[C@H](CO)C1C2 (single isomer, unassigned) [Example 170]", "VALUE_MEASURED": 7.92}
{"COMPOUND": "CCOc1cnc2[nH]cc(C(=O)c3ccc(Oc4ccccc4F)cc3C)c2c1N[C@@]12CO[C@H](CO)C1C2 (single isomer, unassigned) [Example 171]", "VALUE_MEASURED": 8.70}

Moving on to the next compound.
May I ask what pIC50 has been recorded for COc1cnc2[nH]cc(C(=O)c3ccc(Oc4ccccc4F)cc3F)c2c1N[C@@]12CO[C@H](CO)C1C2 (single isomer, unassigned) [Example 168] ?
8.10

---

Experiment: Pharmacokinetics in male Sprague-Dawley rats
Format: in vivo
Settings: male, Sprague-Dawley, plasma; rat, po, 10 mg/kg; read-out: Cmax/C0
READOUT: Cmax (ng/mL)
// units = ng/mL; emit number, no label

# input compound: `COc1cnc2[nH]cc(C(=O)c3ccc(Oc4ccccc4F)cc3F)c2c1N[C@@H]1CC[C@@H](CO)OC1` ; wanted: its Cmax
4140

---

Assay: Pharmacokinetics in male Sprague-Dawley rats
Format: in vivo
Conditions: male, Sprague-Dawley, plasma; rat, po, 5 mg/kg
READOUT: AUC(0-t) (ng·h/mL)
Write the value in ng·h/mL as a bare number.

Report AUC(0-t) for `CCOc1cnc2[nH]cc(C(=O)c3ccc(Oc4ccccc4F)cc3F)c2c1N[C@@H]1CC[C@@H](CO)OC1` please.
10100

---

System: DOHH2 cells
Test: Cell proliferation assay in DOHH2 cells (MTS)
Format: cell-based
Settings: 120 h
READOUT: pIC50
Value format note: pIC50 is -log10 of concentration (mol/L); just state the number.

{"MOLECULE": "Cc1cc(Oc2ccccc2)ccc1C(=O)c1c[nH]c2ncc(C#N)c(N[C@@]34COC(CO)[C@@H]3C4)c12 (single isomer, unassigned) [Example 19]", "pIC50": 7.06}
{"MOLECULE": "Cc1cc(Oc2ccccc2)ccc1C(=O)c1c[nH]c2ncc(C#N)c(N[C@@]34COC(CO)[C@@H]3C4)c12 (single isomer, unassigned) [Example 20]", "pIC50": 7.70}
{"MOLECULE": "COc1cnc2[nH]cc(C(=O)c3ccc(Oc4ccccc4F)cc3F)c2c1N[C@@]12CO[C@H](CO)C1C2 (single isomer, unassigned) [Example 169]", "pIC50": 7.19}

Which value of pIC50 has been reported for CCOc1cnc2[nH]cc(C(=O)c3ccc(Oc4ccccc4F)cc3F)c2c1N[C@@]12CO[C@H](CO)C1C2 (single isomer, unassigned) [Example 173] in the records?
8.15

Looking for the measured pIC50 of CCOc1cnc2[nH]cc(C(=O)c3ccc(Oc4ccccc4)cc3F)c2c1N[C@@]12CO[C@H](CO)C1C2 (single isomer, unassigned) [Example 182] , can you help?
7.51

Looking for the measured pIC50 of COc1cnc2[nH]cc(C(=O)c3ccc(Oc4ccccc4F)cc3C)c2c1N[C@@]12CO[C@H](CO)C1C2 (single isomer, unassigned) , can you help?
7.74

---

Assay: Pharmacokinetics in male Sprague-Dawley rats
Assay type: in vivo
Conditions: male, Sprague-Dawley, plasma; rat, iv, 2 mg/kg
READOUT: half-life (h)
Record the value in h, omitting the unit from your answer.

Which half-life is reported for this compound? `COc1cnc2[nH]cc(C(=O)c3ccc(Oc4ccccc4F)cc3F)c2c1N[C@@H]1CC[C@@H](CO)OC1`
2.56

---

Experiment: Pharmacokinetics in male Sprague-Dawley rats
Format: in vivo
Settings: male, Sprague-Dawley, plasma; rat, iv, 2 mg/kg; read-out: Vdss
READOUT: Vd

Requested read-out: Vd. Entry: COc1cnc2[nH]cc(C(=O)c3ccc(Oc4ccccc4F)cc3F)c2c1N[C@@H]1CC[C@@H](CO)OC1 [Example 75]
0.489 L/kg

---

Experiment: Pharmacokinetics in male Sprague-Dawley rats
Format: in vivo
Settings: male, Sprague-Dawley, plasma; rat, po, 10 mg/kg
READOUT: Tmax (h)
Value expressed in h; do not type the unit.

Which Tmax value belongs to `COc1cnc2[nH]cc(C(=O)c3ccc(Oc4ccccc4F)cc3F)c2c1N[C@@H]1CC[C@@H](CO)OC1` ?
2.83
